Where do these numbers come from? They come from PubChem BioAssay (NCI).

# System: SF-539 CNS
# assay comment: NCI-60 one-dose screen, 48 h (100 = growth as untreated, 0 = no growth, -100 = all killed)
# particulars: 10 µM unless noted
About 83,000 compounds went through this panel and 20% of them were active in at least one assay; those are over-represented in the sample as a whole. Active and inactive are the calls of the source. How the source made its calls: active means growth percent below 10; inactive means the rest.
Hi there, I'd appreciate the recorded growth for every entry that follows.

*Q* Under SF-539 CNS: growth value of CCCCCN1C=C/C(=C\C(=O)N(C)c2ccc(OC(F)(F)F)cc2)c2ccccc21 ?
*A* 103% (inactive)

*Q* Under SF-539 CNS: growth value of CCOC(=O)c1cc(C(=O)c2ccc(Br)cc2)n2ccc(/C=C/c3cc[n+](CC(=O)c4ccc(OC)cc4)cc3)cc12 ?
*A* 102% (inactive)

*Q* Under SF-539 CNS: growth value of C=C(C)[C@@H]1CC[C@]2(CN)CC[C@]3(C)[C@H](CC[C@@H]4[C@@]5(C)CCCNC(C)(C)[C@@H]5CC[C@]43C)[C@@H]12 ?
*A* -31.8% (active)

*Q* Under SF-539 CNS: growth value of N=C(N)c1ccc(OCCCCCCCCCCOc2ccc(C(=N)N)cc2)cc1 ?
*A* -87% (active)

*Q* Under SF-539 CNS: growth value of O=C(/C(=C\c1ccc([N+](=O)[O-])cc1)S(=O)Cc1ccc(Cl)cc1)c1ccc(Cl)cc1 (centres undefined) ?
*A* 99.1% (inactive)

*Q* Under SF-539 CNS: growth value of Nc1nc(Nc2ccccc2SSc2ccccc2Nc2nc(N)nc(-c3ccc(C(F)(F)F)cc3)n2)nc(-c2ccc(C(F)(F)F)cc2)n1 ?
*A* 88.2% (inactive)

*Q* Under SF-539 CNS: growth value of COc1ccc2c(c1)C(=O)CC(c1ccccc1OC)O2 (centres undefined) ?
*A* 96.6% (inactive)

*Q* Under SF-539 CNS: growth value of CCOc1cccc(-c2nc(N)nc(Nc3ccccc3SSc3ccccc3Nc3nc(N)nc(-c4cccc(OCC)c4)n3)n2)c1 ?
*A* 93.2% (inactive)

*Q* Under SF-539 CNS: growth value of CCOC(=O)c1cc(C#N)n2ccc3ccccc3c12 ?
*A* 98.7% (inactive)

* * *

# Tested on: CCRF-CEM leukemia
# assay comment: NCI-60 one-dose screen, 48 h
# particulars: 10 µM unless noted
The panel holds about 83,000 compounds, 20% with a hit somewhere; the sample as a whole holds those more often. Active and inactive are the calls of the source. How the source made its calls: active means growth percent below 10; inactive means the rest.
Answer with one of the outcomes given here: True = active, False = inactive

*Q* Lab log entry: C=C(C)[C@@H]1CC[C@]2(C(=O)N[C@@H](Cc3ccccc3)C(=O)OC)CC[C@]3(C)[C@H](CC[C@@H]4[C@@]5(C)CCC(=O)C(C)(C)[C@@H]5CC[C@]43C)[C@@H]12 — outcome as called in the assay?
*A* False

*Q* Lab log entry: COc1ccc(C(=O)c2nc3ccccc3n2CC(=O)c2ccc(F)cc2)cc1 — outcome as called in the assay?
*A* False

*Q* Lab log entry: O=C1Nc2ccc(F)cc2/C1=C\c1c(-c2ccccc2)nc2ccccn12 — outcome as called in the assay?
*A* False

*Q* Lab log entry: CCNC(=O)Oc1ccc(/C(=C(\C)c2ccccc2)c2ccc(OCCCN(C)C)cc2)cc1 — outcome as called in the assay?
*A* False

*Q* Lab log entry: O=[N+]([O-])CC(c1ccccc1F)c1c[nH]c2ccccc12 (stereo not drawn) — outcome as called in the assay?
*A* False

*Q* Lab log entry: CCOC(=O)[C@@H](C)C[C@H](Cc1ccccc1)NC(=O)c1csc([C@@H](C[C@H](C(C)C)N(C)C(=O)[C@@H](NC(=O)[C@H]2C[C@H](O[Si](C)(C)C(C)(C)C)CCN2C)C(C)C)OC(C)=O)n1 — outcome as called in the assay?
*A* True

*Q* Lab log entry: Cc1ccc(-c2[nH][nH]c(=O)c2-c2nc3ccccc3s2)cc1 — outcome as called in the assay?
*A* False

*Q* Lab log entry: COc1ccc(Cc2cnc(NC(=O)c3ccc4c(c3)OCCO4)s2)cc1 — outcome as called in the assay?
*A* False

* * *

# System: TK-10 renal
# assay comment: NCI-60 one-dose screen, 48 h (100 = growth as untreated, 0 = no growth, -100 = all killed)
# particulars: 10 µM unless noted
About 83,000 compounds went through this panel and 20% of them were active in at least one assay; those are over-represented in the sample as a whole.
// Not fulfilled strictly below 80% in growth; Fulfilled otherwise

*Q* Decide: growth of COc1cc2c(c(O)c1Br)C(=O)c1c(O)cc(C[C@H](C)O)cc1[C@H]2[C@H]1c2cc(C[C@H](C)O)cc(O)c2C(=O)c2c1cc(OC)c(Br)c2O >= 80%?
*A* Not fulfilled

*Q* Decide: growth of COc1ccc(C(=O)Cn2c(C(=O)c3ccccc3)nc3ccccc32)cc1 >= 80%?
*A* Not fulfilled

*Q* Decide: growth of c1ccc2c(-c3nccs3)c[nH]c2c1 >= 80%?
*A* Fulfilled

*Q* Decide: growth of CN(C)c1ccc(C2C(C#N)=C(/N=C/c3ccccc3)Oc3c2ccc2ccccc32)cc1 (centres undefined) >= 80%?
*A* Fulfilled

*Q* Decide: growth of O=[N+]([O-])CC(c1ccccc1F)c1c[nH]c2ccccc12 (centres undefined) >= 80%?
*A* Fulfilled

*Q* Decide: growth of Cc1ccc(S(=O)(=O)NNC(=O)/C(=C\c2ccc(Cl)cc2)c2nc3ccccc3s2)cc1 >= 80%?
*A* Fulfilled

*Q* Decide: growth of COC(=O)c1ccc2c(c1)[n+](=O)c(C(C)=O)c(C(F)(F)F)n2[O-] >= 80%?
*A* Not fulfilled

*Q* Decide: growth of O=S(=O)(NCCNc1nccc(-c2c(-c3cccc(O)c3)nc3occn23)n1)c1cccc(F)c1 >= 80%?
*A* Fulfilled

*Q* Decide: growth of Cc1nc2sccn2c1-c1nc2sccn2c1/C=C1/C(=O)Nc2ccccc21 >= 80%?
*A* Not fulfilled

*Q* Decide: growth of NCCCCCCNc1cc(-c2cccc(OC(F)(F)F)c2)nc2ccc(N3CCCC3)cc12 >= 80%?
*A* Not fulfilled

*Q* Decide: growth of Cn1cc(-c2nc(-c3c[nH]c4c(Cl)nccc34)cs2)c2cc(F)ccc21 >= 80%?
*A* Fulfilled

*Q* Decide: growth of c1ccc(-c2c(-c3ccccc3)[n+](Cc3ccc4ccccc4c3)c(-c3cccc4ccccc34)n2Cc2ccc3ccccc3c2)cc1 >= 80%?
*A* Not fulfilled

*Q* Decide: growth of COc1cccc(-c2nc3occn3c2-c2ccnc(NCCNS(=O)(=O)c3cccc4ccccc34)n2)c1 >= 80%?
*A* Fulfilled

*Q* Decide: growth of CCOC(=O)C1=C(C)NC(SCc2cc(=O)oc3ccc(F)cc23)=N[C@@H]1c1cccc2ccccc12 >= 80%?
*A* Fulfilled

*Q* Decide: growth of O=C(c1ccccc1)N1N=C(c2ccc(-n3ccc(C(F)(F)F)n3)c(F)c2)CC1c1ccc[nH]1 (centres undefined) >= 80%?
*A* Fulfilled

*Q* Decide: growth of N#C/C(=C\c1c(-c2ccccc2)[nH]c2ccccc12)C(=O)c1ccc(Cl)cc1 >= 80%?
*A* Not fulfilled

*Q* Decide: growth of N#C/C(=C\c1ccc(Cl)cc1)n1nnc2cc(F)c(F)cc21 >= 80%?
*A* Not fulfilled

*Q* Decide: growth of NC1=NN=C(N)C1=Cc1cc2ccccc2n2nnnc12 >= 80%?
*A* Fulfilled

*Q* Decide: growth of CC1(C)CC(=O)C2=C(C1)N(c1ccc(F)cc1F)C(N)=C(C#N)C2c1cc(Br)ccc1F (centres undefined) >= 80%?
*A* Fulfilled

* * *

# System: UO-31 renal
# assay comment: NCI-60 one-dose screen, 48 h (100 = growth as untreated, 0 = no growth, -100 = all killed)
# particulars: 10 µM unless noted
Compounds without any hit were thinned out: in the full panel of roughly 83,000, 20% have a hit.
// NO strictly below 50% in growth; YES otherwise

*Q* Decide: growth of Nc1ccccc1NC(=O)c1ccc(-n2nc(-c3ccccc3)c3ccccc32)cc1 >= 50%?
*A* NO

*Q* Decide: growth of Cc1c(C(=O)NCCC(=O)NO)sc2ncnc(Nc3ccc(F)c(Cl)c3)c12 >= 50%?
*A* YES

*Q* Decide: growth of COc1cc2c(-c3cc4c(cc3CNCCc3ccc5c(c3)OCO5)OCO4)cccc2c(OC)c1O >= 50%?
*A* NO

*Q* Decide: growth of CCCCC/C=C/C(C)=C/C1CC(C)C/C=C/CCC(O)C(OC(N)=O)CCC(C)CC(O)C(C)C(=O)O1 (stereo not given) >= 50%?
*A* YES

*Q* Decide: growth of COC(=O)C(CC=O)C(=O)C(=O)Nc1cccc(C(F)(F)F)c1 (stereo not given) >= 50%?
*A* YES

*Q* Decide: growth of Cc1ccc(C(=O)/C(=C\c2ccc([N+](=O)[O-])cc2)S(=O)Cc2ccc(Cl)cc2)cc1 (stereo not given) >= 50%?
*A* NO

*Q* Decide: growth of CC(C)(C)c1ccc(NS(=O)(=O)c2ccc3nc(NC(=O)c4cnccn4)[nH]c3c2)cc1 >= 50%?
*A* NO

*Q* Decide: growth of OCc1cnccc1NCCCOc1ccccc1 >= 50%?
*A* YES

*Q* Decide: growth of CC(Sc1nc2ccccc2c(=O)n1CCc1ccc(S(N)(=O)=O)cc1)C(=O)Nc1ccc(Cl)cc1 (stereo not given) >= 50%?
*A* YES

*Q* Decide: growth of Cc1cccc(C)c1N=c1oc2ccc(Cl)cc2nc1-c1ccccc1O >= 50%?
*A* YES

*Q* Decide: growth of CC(C)(C)CC(C)(C)n1nnnc1C(NC12CC3CC(CC(C3)C1)C2)c1ccccc1 (stereo not given) >= 50%?
*A* YES

*Q* Decide: growth of COc1ccc(C(=O)Nc2cccc(C3CCc4c(cc(OC)c(OC)c4OC)O3)c2)cc1 (stereo not given) >= 50%?
*A* YES

*Q* Decide: growth of Cc1cc2nc3c4cccc(O)c4n(CCN(C)C)c3nc2cc1C >= 50%?
*A* NO

*Q* Decide: growth of COc1ccc2[nH]c(=O)c(CN3CCN(c4nccc(-c5ccc(Cl)cc5)n4)CC3)cc2c1 >= 50%?
*A* YES

*Q* Decide: growth of O=Cc1ccc(-c2cn3ccnc3c(-c3ccc4ncn(Cc5ccccc5)c4c3)n2)cc1 >= 50%?
*A* NO

*Q* Decide: growth of CCN(CC)CC[n+]1cc2cc(OC)c(OC)cc2c2ccc3cc4c(cc3c21)OCO4 >= 50%?
*A* NO

*Q* Decide: growth of CCNc1nc2cc(Nc3ccnc4cc(Cl)ccc34)ccc2o1 >= 50%?
*A* YES

*Q* Decide: growth of COc1cc(C(=O)Nc2cc3c(cc2Oc2cc(C)cc(C)c2)C(=O)N(C)[C@@H](CC(=O)N(C)O)C(=O)N3)c(Br)c(OC)c1OC >= 50%?
*A* NO

*Q* Decide: growth of N=C(N)c1ccc(OCCCCCCCCCCOc2ccc(C(=N)N)cc2)cc1 >= 50%?
*A* NO

*Q* Decide: growth of Cc1nc2sccn2c1-c1nc2sccn2c1/C=C1/C(=O)Nc2ccccc21 >= 50%?
*A* NO
